target: AKT1 WT (Homo sapiens); construct: expressed in transfected cells; host or cells: HEK293; experiment: Live cell AKT1 WT target engagement by NanoBRET competitive probe displacement in HEK293 cells; format: binding; conditions: NanoBRET competitive probe displacement, live HEK293 cells, 2 h at 37° C.; read-out: AKT1 WT IC50
pIC50: −log10 of the molar value.
Assay Metric: pIC50

Check out these entries, answers already filled in.
Compound	Assay Metric	Numeric Readout
Nc1ncccc1-c1nc2ccc(C#CC3COC3)nc2n1-c1ccc2c(c1)CC[C@@H]2NC(=O)c1ccc(C(F)F)nc1 [Compound 408]	pIC50	7.04
O=C(N[C@H]1CCc2cc(-n3c(-c4ccccc4)nc4ccc(-c5ccn(C6CC6)n5)nc43)ccc21)c1ccc(C(F)F)nc1 [Compound 432]	pIC50	7.84

P. Nc1ncccc1-c1nc2ccc(-n3cccn3)nc2n1-c1ccc2c(c1)CC[C@@H]2NC(=O)c1cnns1 [Compound 399]
Q. COc1cc(-c2ccc3nc(-c4cccnc4N)n(-c4ccc5c(c4)CC(F)[C@@H]5NC4CCN(C(=O)C5CC5)CC4)c3n2)ccn1 (stereo partly shown) [Compound 543]
R. Nc1ncccc1-c1nc2ccc(-n3cccn3)nc2n1-c1ccc2c(c1)CC(F)C2NC1CCN(C(=O)C2CC2)CC1 (stereo not shown) [Compound 522]
S. COCC#Cc1ccc2nc(-c3cccnc3N)n(-c3ccc4c(c3)CC[C@@H]4NC(=O)c3ccc(C(F)F)nc3)c2n1 [Compound 409]
T. Cc1cc(C(=O)N[C@H]2CCc3cc(-n4c(-c5cccnc5N)nc5ccc(-n6cccn6)nc54)ccc32)cc(C(F)(F)F)c1O [Compound 416]
Arrange by pIC50, high to low. API: response body holds the labels in the requested order.
T, P, S, Q, R

----------
biological target: AKT2 (Homo sapiens, UniProt P31751); construct: expressed in transfected cells; host or cells: HEK293; experiment: Live cell AKT2 target engagement by NanoBRET competitive probe displacement in HEK293 cells; assay type: binding; settings: NanoBRET competitive probe displacement, live HEK293 cells, 2 h at 37° C.; read-out: AKT2 IC50
Sequence (P31751 whole entry): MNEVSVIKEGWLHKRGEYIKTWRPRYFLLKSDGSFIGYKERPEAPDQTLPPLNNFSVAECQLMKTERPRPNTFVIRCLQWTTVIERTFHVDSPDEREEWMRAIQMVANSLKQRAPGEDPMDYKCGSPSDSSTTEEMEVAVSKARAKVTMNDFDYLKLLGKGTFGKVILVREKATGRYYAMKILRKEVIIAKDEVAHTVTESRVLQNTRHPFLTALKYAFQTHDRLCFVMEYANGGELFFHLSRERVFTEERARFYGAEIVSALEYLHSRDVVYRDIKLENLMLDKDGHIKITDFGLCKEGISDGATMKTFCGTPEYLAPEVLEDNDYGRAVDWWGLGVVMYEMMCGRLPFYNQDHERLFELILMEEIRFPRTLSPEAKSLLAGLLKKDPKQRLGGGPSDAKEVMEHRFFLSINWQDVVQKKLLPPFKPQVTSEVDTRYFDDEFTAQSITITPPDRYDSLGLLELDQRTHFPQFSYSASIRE
pIC50: −log10 of the molar value.
Assay Metric: pIC50

Check out these entries, answers already filled in.
Compound	Assay Metric	Numeric Readout
CN(C)CC#Cc1ccc2nc(-c3cccnc3N)n(-c3ccc4c(c3)CC[C@@H]4NC(=O)c3ccc(C(F)F)nc3)c2n1 [Compound 407]	pIC50	5.45
Nc1ncccc1-c1nc2ccc(-n3cccn3)nc2n1-c1ccc2c(c1)CC[C@@H]2NC1CCN(c2ccccc2)C1 (stereo partly shown) [Compound 470]	pIC50	6.11
CCC#Cc1ccc2nc(-c3cccnc3N)n(-c3ccc4c(c3)CC[C@@H]4NC(=O)c3ccc(C(F)F)nc3)c2n1 [Compound 412]	pIC50	6.16
Cc1ccc(C(=O)N[C@H]2CCc3cc(-n4c(-c5cccnc5N)nc5ccc(-n6ncnc6C6CC6)nc54)ccc32)cn1 [Compound 420]	pIC50	5.51
Cn1c(C(=O)N[C@H]2CCc3cc(-n4c(-c5cccnc5N)nc5ccc(-n6nccn6)nc54)ccc32)cnc1C(F)F [Compound 578]	pIC50	5.77

a. CC#Cc1ccc2nc(-c3cccnc3N)n(-c3ccc4c(c3)CC[C@@H]4NC(=O)c3ccc(C(F)F)nc3)c2n1 [Compound 405]
b. Nc1ncccc1-c1nc2ccc(-n3nccn3)nc2n1-c1ccc2c(c1)CC[C@@H]2NC(=O)c1cnc(C(F)F)o1 [Compound 538]
c. Nc1ncccc1-c1nc2ccc(C#CC3CC3)nc2n1-c1ccc2c(c1)CC[C@@H]2n1cnnc1 [Compound 528]
d. Cn1ccc(N2CCC(N[C@H]3CCc4cc(-n5c(-c6cccnc6N)nc6ccc(-n7ccc(C8CCOCC8)n7)nc65)ccc43)CC2)n1 [Compound 549]
With regard to pIC50, arrange the entries in ascending order, please. API: response body holds the labels in the requested order.
b, a, d, c
(b: 5.54, a: 5.80, d: 6.14, c: 6.49)

----------
Biological target: AKT2 (Homo sapiens)
Construct: expressed in transfected cells; host or cells: HEK293
Experiment: Live cell AKT2 target engagement by NanoBRET competitive probe displacement in HEK293 cells
Assay type: binding
Conditions: NanoBRET live cell target engagement, HEK293 cells, 2 h at 37° C.; read-out: AKT2 IC50
Method: Determining live cell AKT1 E17K, AKT1 WT, and AKT2 target engagement by NanoBRET competitive probe displacement. […] Briefly, HEK293 cells were transfected with plasmids encoding kinase-NanoLuciferase fusion proteins overnight. […] After incubation for 2 h at 37° C., luciferase substrate and extracellular luciferase inhibitor were added to all wells, and luminescent intensity at 460 nm and 600 nm were measured on a multimode plate-reader. […]
Assay Metric: IC50 (nM)

Check out these entries, answers already filled in.
Compound	Measurement Units	IC50
Nc1ncccc1-c1nc2ccc(-n3cccn3)nc2n1-c1ccc2c(c1)CC[C@@H]2NC(=O)c1cnc(O)c(F)c1	nM	660
Nc1ncccc1-c1nc2ccc(-n3cccn3)nc2n1-c1ccc2c(c1)CC[C@@H]2NC(=O)c1cncc(F)c1	nM	123
Nc1ncccc1-c1nc2ccc(-n3nccn3)nc2n1-c1ccc2c(c1)CC[C@@H]2NC(=O)c1ccc(C(F)F)nc1	nM	1070
Cc1cn2cc(C(=O)N[C@H]3CCc4cc(-n5c(-c6cccnc6N)nc6ccc(-n7cccn7)nc65)ccc43)ccc2n1	nM	28.1

1. Nc1ncccc1-c1nc2ccc(-n3cccn3)nc2n1-c1ccc2c(c1)CC(F)[C@@H]2NC1CCN(C(=O)C2CC2)CC1 (single isomer, unassigned) [Compound 385]
2. Nc1ncccc1-c1nc2ccc(-n3cccn3)nc2n1-c1ccc2c(c1)CC[C@@H]2NC1CCN(c2ccccn2)C1 (stereo partly drawn) [Compound 387]
Could you please tell me which of these two has the higher IC50: 1 or 2 ? Give the chosen item's label as your response.
1
(1: 1790 nM, 2: 351 nM)

----------
target: AKT1 WT (Homo sapiens, UniProt P31749); construct: expressed in transfected cells; host or cells: HEK293; experiment: Live cell AKT1 WT target engagement by NanoBRET competitive probe displacement in HEK293 cells; assay type: binding; details: NanoBRET live cell target engagement, HEK293 cells, 2 h at 37° C.; read-out: AKT1 WT IC50
Sequence (P31749 whole entry): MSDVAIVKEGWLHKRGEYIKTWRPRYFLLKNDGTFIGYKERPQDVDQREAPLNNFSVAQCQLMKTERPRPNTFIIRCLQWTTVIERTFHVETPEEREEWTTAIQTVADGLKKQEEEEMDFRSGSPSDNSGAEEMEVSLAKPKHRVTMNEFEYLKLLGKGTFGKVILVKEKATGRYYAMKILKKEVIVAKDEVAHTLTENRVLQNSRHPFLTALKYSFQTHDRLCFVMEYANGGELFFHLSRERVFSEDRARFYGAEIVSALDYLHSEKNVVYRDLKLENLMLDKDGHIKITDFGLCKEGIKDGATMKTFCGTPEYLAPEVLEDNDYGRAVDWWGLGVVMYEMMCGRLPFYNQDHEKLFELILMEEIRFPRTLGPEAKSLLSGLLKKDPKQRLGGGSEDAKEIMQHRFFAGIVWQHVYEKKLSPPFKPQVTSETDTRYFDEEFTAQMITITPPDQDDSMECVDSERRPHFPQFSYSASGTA
Assay Metric: IC50 (nM)

A. Nc1ncccc1-c1nc2ccc(-n3nccn3)nc2n1-c1ccc2c(c1)CC(F)[C@@H]2NC(=O)c1ccc(C(F)F)nc1 (stereo partly drawn) [Compound 349]
B. COc1cc(C(=O)N[C@H]2CCc3cc(-n4c(-c5cccnc5N)nc5ccc(-n6cccn6)nc54)ccc32)nn1C(F)F
Smaller IC50 value? Options are A and B Give the chosen item's label as your response.
A

1. Nc1ncccc1-c1nc2ccc(-n3cccn3)nc2n1-c1ccc2c(c1)CC[C@@H]2NC(=O)c1ccc2oncc2c1
2. Cc1coc(-c2ccc3nc(-c4cccnc4N)n(-c4ccc5c(c4)CC[C@@H]5NC(=O)c4nccnc4C)c3n2)n1
Could you please tell me which of these two has the higher IC50: 1 or 2 ? Give the chosen item's label as your response.
2

a. CCc1ccc(C(=O)N[C@H]2CCc3cc(-n4c(-c5cccnc5N)nc5ccc(-n6cccn6)nc54)ccc32)cn1
b. Nc1ncccc1-c1nc2ccc(-n3cccn3)nc2n1-c1ccc2c(c1)CC[C@@H]2NC(=O)c1ccc(F)cc1
Could you please tell me which of these two has the higher IC50: a or b ? Give the chosen item's label as your response.
b

----------
molecular target: AKT2 (Homo sapiens, UniProt P31751); construct: expressed in transfected cells; host or cells: HEK293; experiment: Live cell AKT2 target engagement by NanoBRET competitive probe displacement in HEK293 cells; assay type: binding; conditions: NanoBRET competitive probe displacement, live HEK293 cells, 2 h at 37° C.; read-out: AKT2 IC50
pIC50: −log10 of the molar value.
Assay Metric: pIC50

Compound	pIC50
Nc1ncccc1-c1nc2ccc(-n3nccn3)nc2n1-c1ccc2c(c1)CC[C@@H]2NC(=O)c1cnc(C(F)F)s1	5.97
Nc1ncccc1-c1nc2ccc(-n3ccc(OCCN4CCOCC4)n3)nc2n1-c1ccc2c(c1)CC[C@@H]2NC1CCN(C(=O)C2CC2)CC1	6.26
Nc1ncccc1-c1nc2ccc(-n3cccn3)nc2n1-c1ccc2c(c1)CC[C@@H]2NC1CCc2cc(O)ccc21 (single isomer, unassigned) [Compound 499]	6.05
Cc1nc(C(F)F)sc1C(=O)N[C@H]1CCc2cc(-n3c(-c4cccnc4N)nc4ccc(-n5nccn5)nc43)ccc21	6.25

a. Nc1ncccc1-c1nc2ccc(-c3ccn(C(F)F)n3)nc2n1-c1ccc2c(c1)CC[C@@H]2NC1CCN(C(=O)C2CC2)CC1
b. Cc1nnsc1C(=O)N[C@H]1CCc2cc(-n3c(-c4cccnc4N)nc4ccc(-n5cccn5)nc43)ccc21
c. Nc1ncccc1-c1nc2ccc(-c3ccn(C(F)F)n3)nc2n1-c1ccc2c(c1)CC[C@@H]2NC(=O)c1ccc(C(F)(F)F)nc1
d. Cc1oncc1C(=O)N1CCC(N[C@H]2CCc3cc(-n4c(-c5cccnc5N)nc5ccc(-n6cccn6)nc54)ccc32)CC1
e. CN(CCC1CC1)[C@H]1CCc2cc(-n3c(-c4cccnc4N)nc4ccc(-n5cccn5)nc43)ccc21
With regard to pIC50, arrange the entries in ascending order, please. API: response body holds the labels in the requested order.
d, e, a, b, c
